Source: the supplement of paper PMC11061612

Tested on: NCCIT (Other Solid Carcinomas);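 further: after 72 h of two-drug dosing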
Test: Bliss excess, mean over the matrix (fraction); higher = more synergy
Bliss excess: recorded values

A selection of reference data follows.
- molecule: "Cn1cnc2c(F)c(Nc3ccc(Br)cc3Cl)c(C(=O)NOCCO)cc21 [Selumetinib] + CC(C)n1c(=O)n(C)c2cnc3cc(F)c(-c4ccc(OCCCN5CCCCC5)nc4)cc3c21 [AZD1390] (first compound max 10 µM, 7x7, partner max 0.3 µM)"
  obs-value: -0.041
- molecule: "CC(=O)Nc1cccc(-n2c(=O)n(C3CC3)c(=O)c3c(Nc4ccc(I)cc4F)n(C)c(=O)c(C)c32)c1 [Trametinib] + Cc1nc(-c2cn3c(n2)-c2ccc(-c4cnn(C(C)(C)C(N)=O)c4)cc2OCC3)n(C(C)C)n1 [Taselisib] (first compound max 1 µM, 7x7, partner max 10 µM)"
  obs-value: 0.0184

Now consider a different molecule.
For the record CC1(C)CCC(CN2CCN(c3ccc(C(=O)NS(=O)(=O)c4ccc(NCC5CCOCC5)c([N+](=O)[O-])c4)c(Oc4cnc5[nH]ccc5c4)c3)CC2)=C(c2ccc(Cl)cc2)C1 [Venetoclax] + Cc1cc2ncnn2cc1Nc1ncc2c(n1)n(C1CCOCC1)c(=O)n2C [AZD7648] (first compound max 1 µM, 7x7, partner max 10 µM) , what value of Bliss excess is listed for NCCIT (Other Solid Carcinomas)?
-0.0326
